tested on: RARa homodimer (NR concentration 270 nM); assay: PBM binding z-score (relative to random genomic background probes); higher = stronger binding; sequences stand for … in GC…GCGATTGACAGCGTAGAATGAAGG
The entries below are paired with their reported PBM binding z-score.

Reference set, count: 5
>  <RESIDUES>
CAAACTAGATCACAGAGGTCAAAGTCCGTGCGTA

>  <PBM binding z-score>
2.65

$$$$
>  <RESIDUES>
CTCGAAAGGTAGTGCTCAGGTGAGTATACCAAAC

>  <PBM binding z-score>
0.44

$$$$
>  <RESIDUES>
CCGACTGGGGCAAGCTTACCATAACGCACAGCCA

>  <PBM binding z-score>
-0.606

$$$$
>  <RESIDUES>
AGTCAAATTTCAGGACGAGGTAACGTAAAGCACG

>  <PBM binding z-score>
0.17

$$$$
>  <RESIDUES>
ATATGTAGGTTAAGGGCCATTCAGGTTGGTTCGC

>  <PBM binding z-score>
0.601

$$$$

Recorded PBM binding z-score of CAAACTCGGTCAAGAGGTCAAAGTCCGCTTCCCG , please.
1.95

Recorded PBM binding z-score of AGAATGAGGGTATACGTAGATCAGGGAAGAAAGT , please.
-0.0376

Recorded PBM binding z-score of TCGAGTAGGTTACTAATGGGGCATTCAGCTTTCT , please.
-0.684

Recorded PBM binding z-score of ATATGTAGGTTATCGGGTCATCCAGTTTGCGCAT , please.
1.79

Recorded PBM binding z-score of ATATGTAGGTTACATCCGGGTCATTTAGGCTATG , please.
0.824

Recorded PBM binding z-score of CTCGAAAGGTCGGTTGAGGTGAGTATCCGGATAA , please.
-0.322

Recorded PBM binding z-score of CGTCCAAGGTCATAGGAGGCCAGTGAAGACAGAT , please.
0.617

Recorded PBM binding z-score of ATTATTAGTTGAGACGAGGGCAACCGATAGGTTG , please.
2.49

Recorded PBM binding z-score of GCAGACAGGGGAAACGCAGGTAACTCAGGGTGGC , please.
-1.03

Recorded PBM binding z-score of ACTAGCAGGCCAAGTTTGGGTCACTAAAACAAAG , please.
-0.238

Recorded PBM binding z-score of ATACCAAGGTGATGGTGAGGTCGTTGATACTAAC , please.
0.462

Recorded PBM binding z-score of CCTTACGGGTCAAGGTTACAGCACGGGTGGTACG , please.
0.176

Recorded PBM binding z-score of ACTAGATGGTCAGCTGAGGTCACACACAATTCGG , please.
1.34

Recorded PBM binding z-score of GCGACGGGGGCATCAGCAGGTTACCATAACTTAA , please.
-0.447

Recorded PBM binding z-score of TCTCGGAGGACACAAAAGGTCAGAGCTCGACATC , please.
1.33

Recorded PBM binding z-score of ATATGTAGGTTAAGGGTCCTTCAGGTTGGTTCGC , please.
0.703

Recorded PBM binding z-score of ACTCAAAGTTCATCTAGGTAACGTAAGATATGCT , please.
2.11

---

system: VDR homodimer (NR concentration 270 nM); assay: PBM binding z-score (relative to random genomic background probes); higher = stronger binding; sequences stand for … in GC…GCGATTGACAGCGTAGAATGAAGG
Is PBM binding z-score at least 0.2? Then 1 (yes). If not, 0 (no).

Example entries and their recorded answers appear below.
>  <RESIDUES>
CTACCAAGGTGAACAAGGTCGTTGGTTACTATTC

>  <LABEL VALUE>
1 (yes)

$$$$
>  <RESIDUES>
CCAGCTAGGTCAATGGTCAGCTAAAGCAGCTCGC

>  <LABEL VALUE>
0 (no)

$$$$

Could you please find out whether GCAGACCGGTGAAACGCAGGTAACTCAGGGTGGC has PBM binding z-score that meets 0.2 or exceeds it?
0 (no)

Could you please find out whether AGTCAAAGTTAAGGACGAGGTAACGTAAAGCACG has PBM binding z-score that meets 0.2 or exceeds it?
0 (no)

Could you please find out whether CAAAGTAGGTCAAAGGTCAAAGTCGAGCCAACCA has PBM binding z-score that meets 0.2 or exceeds it?
1 (yes)

Could you please find out whether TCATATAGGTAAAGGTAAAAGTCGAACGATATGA has PBM binding z-score that meets 0.2 or exceeds it?
0 (no)

Could you please find out whether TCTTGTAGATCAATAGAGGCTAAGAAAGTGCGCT has PBM binding z-score that meets 0.2 or exceeds it?
0 (no)

---

system: FXR:RXRa (NR concentration 270 nM, RXRa partner concentration 90 nM); test: PBM binding z-score (relative to random genomic background probes); higher = stronger binding; sequences stand for … in GC…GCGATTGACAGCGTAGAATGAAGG
Is PBM binding z-score at least 4? Then Criterion met. If not, Criterion not met.

Example entries and their recorded answers appear below.
>  <RESIDUES>
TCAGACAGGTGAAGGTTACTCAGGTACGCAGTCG

>  <LABEL VALUE>
Criterion not met

$$$$
>  <RESIDUES>
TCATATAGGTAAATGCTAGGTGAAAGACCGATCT

>  <LABEL VALUE>
Criterion not met

$$$$

Okay, now this sequence:
Could you please find out whether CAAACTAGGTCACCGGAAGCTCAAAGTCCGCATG has PBM binding z-score that meets 4 or exceeds it?
Criterion met

---

test system: PPARg:RXRa IVT, anti-PPARg (NR concentration 270 nM, RXRa partner concentration 90 nM); assay: PBM binding z-score (relative to random genomic background probes); higher = stronger binding; sequences stand for … in GC…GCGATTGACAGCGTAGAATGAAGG
MEASUREMENT KIND: PBM binding z-score
Format: numeric value only, no unit, no commentary.

>  <RESIDUES>
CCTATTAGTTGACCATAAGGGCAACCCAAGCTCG

>  <EXPERIMENTAL TARGET>
PPARg:RXRa IVT, anti-PPARg (NR concentration 270 nM, RXRa partner concentration 90 nM)

>  <PBM binding z-score>
0.597

$$$$
>  <RESIDUES>
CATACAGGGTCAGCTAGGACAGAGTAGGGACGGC

>  <EXPERIMENTAL TARGET>
PPARg:RXRa IVT, anti-PPARg (NR concentration 270 nM, RXRa partner concentration 90 nM)

>  <PBM binding z-score>
2.23

$$$$
>  <RESIDUES>
ACTCGTTGGTCAGCTGAGGTCACACACAATTCGG

>  <EXPERIMENTAL TARGET>
PPARg:RXRa IVT, anti-PPARg (NR concentration 270 nM, RXRa partner concentration 90 nM)

>  <PBM binding z-score>
2.05

$$$$
>  <RESIDUES>
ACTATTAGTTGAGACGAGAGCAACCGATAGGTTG

>  <EXPERIMENTAL TARGET>
PPARg:RXRa IVT, anti-PPARg (NR concentration 270 nM, RXRa partner concentration 90 nM)

>  <PBM binding z-score>
-0.0541

$$$$
>  <RESIDUES>
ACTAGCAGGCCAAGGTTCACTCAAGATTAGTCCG

>  <EXPERIMENTAL TARGET>
PPARg:RXRa IVT, anti-PPARg (NR concentration 270 nM, RXRa partner concentration 90 nM)

>  <PBM binding z-score>
2.08

$$$$
>  <RESIDUES>
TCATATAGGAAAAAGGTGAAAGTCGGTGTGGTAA

>  <EXPERIMENTAL TARGET>
PPARg:RXRa IVT, anti-PPARg (NR concentration 270 nM, RXRa partner concentration 90 nM)

>  <PBM binding z-score>
1.79

$$$$
>  <RESIDUES>
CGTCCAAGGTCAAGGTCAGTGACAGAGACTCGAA

>  <EXPERIMENTAL TARGET>
PPARg:RXRa IVT, anti-PPARg (NR concentration 270 nM, RXRa partner concentration 90 nM)

>  <PBM binding z-score>
4.87

$$$$
>  <RESIDUES>
CAGCCTAGGTCAGGGCTAGTATAGGAGGAACGTT

>  <EXPERIMENTAL TARGET>
PPARg:RXRa IVT, anti-PPARg (NR concentration 270 nM, RXRa partner concentration 90 nM)

>  <PBM binding z-score>
1.55

$$$$

Recorded PBM binding z-score of GCGACTGGGGCACAGCAGGTTACCATAAGGTTGG , please.
4.28

Recorded PBM binding z-score of CCTAGCAGGCCAATCTGGGTCACTGAAGGCTTGA , please.
5.17

Recorded PBM binding z-score of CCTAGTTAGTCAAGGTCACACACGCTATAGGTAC , please.
2.69

Recorded PBM binding z-score of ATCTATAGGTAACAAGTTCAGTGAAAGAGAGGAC , please.
1.83

Recorded PBM binding z-score of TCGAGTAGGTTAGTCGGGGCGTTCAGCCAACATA , please.
0.976

Recorded PBM binding z-score of CGTCCAAGGTCATAGGTGGTCAGTGAAGACAGAT , please.
3.73

Recorded PBM binding z-score of CAAACTAGGTCACGAAAGGTAAAAGTCGAATGAC , please.
9.37
